Kindly supply the reported aggregation suppression score values for the records listed here.
Assay: suppressors of polyglutamine aggregation in yeast, 75Q-TubH (AID 1616)
Settings: S. cerevisiae 75Q-TubH polyglutamine aggregation suppression; stronger effect = higher value
Give bare numbers.

Consider the reported aggregation suppression score for these compounds:
[[record]]
compound = "NCCc1ccc(O)c(O)c1"
readout_value = 1.6

[[record]]
compound = "CN(C)CCCN1c2ccccc2CCc2ccccc21"
readout_value = 1.2

[[record]]
compound = "NNC(=O)c1ccncc1"
readout_value = 1.6

[[record]]
compound = "C[C@@H]1O[C@@H](OC[C@H]2O[C@@H](Oc3c(-c4ccc(O)c(O)c4)oc4cc(O)cc(O)c4c3=O)[C@H](O)[C@@H](O)[C@@H]2O)[C@H](O)[C@H](O)[C@H]1O"
readout_value = 0.985


Look up aggregation suppression score: O=C(c1ccccc1)c1ccc2n1CCC2C(=O)O (stereo not given)
1.2
